Where do the numbers come from? From patent US20220143021A1.

- test: CCK-8 viability (cytotoxicity) assay
- Assay type: cell-based
- conditionsUsed: human, WPMY-1 cells (immortalized prostate stromal cells); 100 nM, 72 h; read-out: decrease of viability
assayReadout: cytotoxicity at 72 h, 100 nM (%)
Just the number please, in %, no unit attached.

Exercise: Fill in the blank: the reported cytotoxicity at 72 h, 100 nM of CN1CCN(c2ccc(OC(F)(F)F)c(Nc3ncc4c(n3)-c3c(c(C(N)=O)nn3CCO)CC4)c2)CC1 [onvansertib] is ____.
Key: 89

---

- test: CCK-8 viability (cytotoxicity) assay
- Type: cell-based
- conditionsUsed: human, WPMY-1 cells (immortalized prostate stromal cells); 100 nM, 24 h; read-out: decrease of viability
assayReadout: cytotoxicity at 24 h, 100 nM

Exercise: Fill in the blank: the reported cytotoxicity at 24 h, 100 nM of CN1CCN(c2ccc(OC(F)(F)F)c(Nc3ncc4c(n3)-c3c(c(C(N)=O)nn3CCO)CC4)c2)CC1 is ____.
Key: 63%
